- TESTED_SYSTEM: Serine/threonine-protein phosphatase 5 (Homo sapiens)
- ASSAY_METHOD_TEXT: PP5 phosphatase inhibitors, primary screen, biochemical, fluorescence (AID 1987);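 further: 0% = DMSO only and 100% = 100 µM cantharidin control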
- ASSAY_CONTEXT: purified PP5c, OMFP substrate fluorescence; at 6.7 µM; hits give high values
Out of some 320,000 compounds screened, about 560 (0.17%) were called active. The full list was thinned out, with actives kept by preference.
VALUE_TYPE: inhibition (%)
Write the answer as a number in %, unit excluded.

Ask: Write down inhibition measured for item Cc1ccc(CCN2CC(C(=O)O)CC2=O)cc1 (centres undefined)
Result: 5.13

Ask: Write down inhibition measured for item O=C(CCn1nnnc1CN1CCOCC1)N1CCC(c2ccccc2Cl)C1 (centres undefined)
Result: 0.07

Ask: Write down inhibition measured for item C[C@H]1[C@H]2c3nc4ccccc4n3C[C@H]1ON2C1CCCCC1
Result: -1.65

Ask: Write down inhibition measured for item CCN1C(=O)[C@H]2[C@@H](c3ccc(SC4CCCCC4)c(OC)c3)N[C@@](Cc3ccccc3)(C(=O)OC)[C@H]2C1=O
Result: 2.69

Ask: Write down inhibition measured for item O=C(CSc1n[nH]c(=O)n1-c1ccccc1)Nc1ccccc1C(F)(F)F
Result: 1.79

Ask: Write down inhibition measured for item O=C(NCCCN1CCCCCC1)C1CC(=O)N(C2CCCC2)C1 (centres undefined)
Result: 0.05

Ask: Write down inhibition measured for item CC1(c2cccc([N+](=O)[O-])c2)CC(C)(C)N(C(=O)c2ccccc2)c2ccccc21 (centres undefined)
Result: 3.32

Ask: Write down inhibition measured for item N#Cc1ccc(CN2CCN(CC(=O)Nc3ccccc3C(=O)NC3CC3)CC2)cc1
Result: -0.41

Ask: Write down inhibition measured for item COCCN1C=C2C(=O)C(C)(OC(=O)C3CCCC3)C(=O)C=C2C=C1c1ccsc1 (centres undefined)
Result: 11.1

Ask: Write down inhibition measured for item CC(=O)N1CCOc2ccc(S(=O)(=O)N3CCC(C(=O)Nc4ccccc4F)CC3)cc21
Result: -2.25

Ask: Write down inhibition measured for item COc1ccc(NC(=O)COC(=O)CNC(=O)C2CCCCC2)cc1
Result: -1.03

Ask: Write down inhibition measured for item CN1CCN(CCCNC(=O)c2ccc(/C=C3\Oc4ccccc4N(Cc4ccc(Cl)cc4)C3=O)cc2)CC1
Result: 4.83

Ask: Write down inhibition measured for item CC(=O)NCc1ccc(S(=O)(=O)NC2CCN(Cc3ccccc3)CC2)cc1
Result: 2.13

Ask: Write down inhibition measured for item CC1(OC(=O)C2CCCC2)C(=O)C=C2C=C(c3ccc(C#N)cc3)OC=C2C1=O (centres undefined)
Result: -1.54

Ask: Write down inhibition measured for item CC(C)C[C@H](NC(=O)C1CC(=O)N(c2ccc3c(c2)OCCO3)C1)C(=O)NC1CCCC1 (some centres undefined)
Result: -0.77

Ask: Write down inhibition measured for item CN(C)c1nc(N)nc(CSc2ccccn2)n1
Result: 1.71

Ask: Write down inhibition measured for item O=C(O)c1ccc(-n2cccc2)cc1O
Result: 1.23

Ask: Write down inhibition measured for item COc1ccc(N(CC(=O)NC2CCCC2)C(=O)CS(=O)CC(=O)Nc2ccc3c(c2)OCO3)cc1 (centres undefined)
Result: 0.8

Ask: Write down inhibition measured for item CCN1CCN(CCNC(=O)c2ccc(/C=C3/Sc4ccccc4N(Cc4cccc(C)c4)C3=O)cc2)CC1
Result: 10.1
